Consider the following sequences; for each one, report its binding signal.
Target: GST-WRKY1(266-371) (Arabidopsis thaliana, UniProt Q9SI37 266-371)
Sequence (Q9SI37 266-371): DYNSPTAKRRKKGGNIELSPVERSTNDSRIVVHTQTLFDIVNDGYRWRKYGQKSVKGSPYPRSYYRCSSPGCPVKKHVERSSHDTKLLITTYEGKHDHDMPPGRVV
Assay: universal protein binding microarray (PBM); high values mean tight binding
Conditions: protein: recombinant; tags: GST; dsDNA, one strand shown
Reply with the number, then its unit.

Consider the following illustrative entries.
In [3]: df
Out[3]:
   primary_sequence                           subject_of_test  measured_attribute  endpoint_value
0          CAAGACCA  GST-WRKY1(266-371) (Arabidopsis thaliana, UniProt Q9SI37 266-371)      binding signal   0.408 E-score
1          CCGTCAAA  GST-WRKY1(266-371) (Arabidopsis thaliana, UniProt Q9SI37 266-371)      binding signal   0.409 E-score
2          GTCAGACA  GST-WRKY1(266-371) (Arabidopsis thaliana, UniProt Q9SI37 266-371)      binding signal    0.41 E-score

Could you tell me binding signal for each of these sequences? They are listed below.
1. GCGAAGAC
2. TGACCTCA
3. AGGTCAAA

1: 0.404 E-score; 2: 0.41 E-score; 3: 0.482 E-score

Quick request: binding signal for each listed item, please.
1. AACGTAGA
2. ACACTCAA
3. GTCAAATA
4. TGACTCAA

["0.317 E-score", "0.133 E-score", "0.461 E-score", "0.419 E-score"]

# per-item lookup of binding signal; items listed below
1. AAAAAGTC
2. AAGTCAGC

1: 0.426 E-score; 2: 0.459 E-score

// each sequence listed below needs its binding signal
1. ACAAGTCA
2. CTTTCTTC
3. CGGTCAAA
4. GTTGACCA
5. GTGGTCAA
6. CGATGACC
7. GACCGGTC
8. GTTAAGGA

["0.43 E-score", "0.156 E-score", "0.49 E-score", "0.492 E-score", "0.489 E-score", "0.414 E-score", "0.445 E-score", "0.0559 E-score"]

###

What binding signal was measured for each of the following?
Target: GST-ANAC092(1-285) full length (Arabidopsis thaliana, UniProt Q9FKA0 1-285)
Sequence: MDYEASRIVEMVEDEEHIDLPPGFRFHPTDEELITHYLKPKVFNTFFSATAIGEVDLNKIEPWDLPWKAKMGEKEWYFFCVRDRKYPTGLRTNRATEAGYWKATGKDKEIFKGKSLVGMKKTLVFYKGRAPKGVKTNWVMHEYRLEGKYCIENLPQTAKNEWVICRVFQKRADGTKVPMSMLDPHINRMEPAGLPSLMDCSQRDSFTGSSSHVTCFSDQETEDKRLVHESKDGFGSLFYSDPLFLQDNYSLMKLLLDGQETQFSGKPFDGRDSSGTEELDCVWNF
Assay: universal protein binding microarray (PBM); transcription factors of Arabidopsis thaliana; high values mean tight binding
Details: protein: recombinant; tags: GST; chain copies: 2; dsDNA, one strand shown
Answer format reminder: number followed by unit.

>>> df
   primary_sequence  measured_attribute  endpoint_value
0          TTACGAAA      binding signal   0.409 E-score
1          ACGGCAAC      binding signal    0.42 E-score
2          TCACGGAA      binding signal   0.381 E-score
3          TGACGTAA      binding signal   0.441 E-score
4          CGTCAAAG      binding signal   0.149 E-score

# return binding signal for each item in the list
1. TACGCCAA
2. TAAGAAAA
3. ATTACGTC

0.439 E-score
0.269 E-score
0.405 E-score

Hi, could you look up binding signal for each item in my list?
1. ATTGCGTA
2. TGAAGGAA
3. CACGTCAA
4. AGGGTAAA
5. TCGCGTAA
6. GTAACGTA

1. 0.485 E-score
2. 0.0772 E-score
3. 0.448 E-score
4. 0.0699 E-score
5. 0.385 E-score
6. 0.467 E-score

// each sequence listed below needs its binding signal
1. CTAAGTTA
2. AACGTAAT
3. ACACGTCT
4. CACGCAAC
5. CTAGCGTA
6. GTTTCTTA
7. ATTACGTG
8. ACACGGTA

1: 0.279 E-score; 2: 0.357 E-score; 3: 0.425 E-score; 4: 0.498 E-score; 5: 0.398 E-score; 6: 0.313 E-score; 7: 0.462 E-score; 8: 0.443 E-score

Give binding signal for each of the items listed below.
1. TGAAGCAA
2. ATAACGTA
3. ACGTAAGC
4. TACCTTAA

["0.32 E-score", "0.423 E-score", "0.449 E-score", "0.26 E-score"]

Okay, here is my list. What is binding signal for each of these?
1. ACACGTAA
2. AAGCAAAG
3. TTCGTCAA
4. ACGCAACC
5. TAAGCAAA

0.481 E-score
0.369 E-score
0.0695 E-score
0.492 E-score
0.308 E-score

Consider the following items and state reported binding signal for each.
1. AGCACGCA
2. TCACGGCA
3. ATACGCTA

0.453 E-score
0.429 E-score
0.466 E-score

Hey, quick one: what's binding signal for each of these?
1. AAGCAACA
2. AGGTAAGG
3. CTTACTTA
4. GTCAAAGA
5. AACACGCT
6. GACGCAAC
7. ACACGACT
8. CTAACGTA

0.405 E-score
0.0822 E-score
0.276 E-score
0.0725 E-score
0.431 E-score
0.457 E-score
0.171 E-score
0.391 E-score

Hello, I would appreciate it if you could give binding signal for each entry below.
1. CACGCTAA
2. ATCGCGTG
3. ACGCTACA

1. 0.471 E-score
2. 0.441 E-score
3. 0.404 E-score
